This collection of values is drawn from patent EP3375430A1.

test: Amount of fragrance ingredients retained on paper blotter after evaporation (ethanol extraction, GC-MS)
Assay type: physicochemical
condition.summary: Table 6; fragrance TAK in EdT1; 120 min; 32°C
measurement.name: amount of fragrance ingredient retained on blotter (percentage of the initial amount) (%)

* CC(=O)OC1CCCCC1C(C)(C)C (stereo not drawn) [Verdox™, (2-tert-butylcyclohexyl) acetate] | 2
* C=CC(C)(CCC=C(C)C)OC(C)=O (stereo not drawn) [Linalyl acetate] | 6

----------
test: Amount of fragrance ingredients retained on paper blotter after evaporation (ethanol extraction, GC-MS)
Format: physicochemical
condition.summary: Table 5; fragrance TAK in EdT1; 15 min; 32°C
measurement.name: amount of fragrance ingredient retained on blotter (percentage of the initial amount) (%)

• C=CC(C)(CCC=C(C)C)OC(C)=O (centres unmarked) [Linalyl acetate] = 70
• CC(C=O)Cc1ccc(C(C)(C)C)cc1 (centres unmarked) [Lilial™, 3-(4-tert-Butylphenyl)-2-methylpropanal] = 91
• CC/C=C\CCOC(=O)c1ccccc1O [Cis 3-hexenyl salicylate, Cis-3-hexenyl salicylate] = 96
• O=C1CCCCCCCCCCCC(=O)OCCO1 [Ethylene Brassylate] = 88
• CC(=O)OC1CCCCC1C(C)(C)C (centres unmarked) [Verdox™, (2-tert-butylcyclohexyl) acetate] = 70
